Hey, just so you know, these numbers are from patent US20140065163A1.

- Study system: human GM-CSF I117 (human, UniProt P04141 18-144)
- Sequence (P04141 18-144 limits assumed): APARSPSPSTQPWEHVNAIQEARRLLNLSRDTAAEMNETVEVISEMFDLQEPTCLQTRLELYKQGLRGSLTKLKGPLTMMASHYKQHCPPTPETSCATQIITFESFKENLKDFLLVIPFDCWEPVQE
- Measurement notes: cell-based or functional assay
Readout kind: Fold improvement of 4K21 H93Y alone on I117 (IC50, TF-1 proliferation) (fold)

Binder	Measured
humanized parental 4K21 hVH hVL + H93Y (MS100305-A) (antibody, V domains shown) VH: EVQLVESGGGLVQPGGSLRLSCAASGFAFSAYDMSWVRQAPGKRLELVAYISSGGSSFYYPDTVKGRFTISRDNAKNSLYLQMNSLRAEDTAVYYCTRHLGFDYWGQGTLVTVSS VL: DIVMTQSPLSLPVTPGEPASISCRSSQSLVNSNGNTYLHWYLQKPGQSPQLLIYKVSNRFSGVPDRFSGSGSGTDFTLKISRVEAEDVGVYYCSQSTYVPPTFGQGTKVEIK	1
MSB0010600 4K21 (4K21 hVH S55R-T62S hVL S27eY-N28I-H34S-N53R-H93Y) (antibody, V domains shown) VH: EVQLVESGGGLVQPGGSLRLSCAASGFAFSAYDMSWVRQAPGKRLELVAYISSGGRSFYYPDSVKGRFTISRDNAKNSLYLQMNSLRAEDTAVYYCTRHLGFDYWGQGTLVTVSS VL: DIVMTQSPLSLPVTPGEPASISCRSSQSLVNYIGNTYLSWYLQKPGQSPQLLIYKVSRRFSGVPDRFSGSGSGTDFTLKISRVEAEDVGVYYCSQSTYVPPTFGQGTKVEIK	0.9
humanized parental anti-GM-CSF 4K21 VH3-07.1AL+VK2-A3.2 hIgG1K antibody (MSB0010439) (antibody, V domains shown, Human IgG1 kappa; also called humanized parental 4K21 hVH hVL; parental 4K21) VH: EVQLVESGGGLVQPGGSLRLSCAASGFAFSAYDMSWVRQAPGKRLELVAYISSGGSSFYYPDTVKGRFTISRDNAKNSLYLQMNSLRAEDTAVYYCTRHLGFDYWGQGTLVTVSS VL: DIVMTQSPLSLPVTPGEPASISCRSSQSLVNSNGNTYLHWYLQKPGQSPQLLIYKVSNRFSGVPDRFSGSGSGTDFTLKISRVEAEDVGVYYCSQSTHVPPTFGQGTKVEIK	0.2
MSB0010601 4K21 (4K21 hVH S55K-T62S hVL N28I-H34S-N53R-H93Y) (antibody, V domains shown, IgG; also called optimized 4K21 antibody) VH: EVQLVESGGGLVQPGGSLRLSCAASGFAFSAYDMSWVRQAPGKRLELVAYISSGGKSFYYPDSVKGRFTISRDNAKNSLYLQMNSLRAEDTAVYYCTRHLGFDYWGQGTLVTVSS VL: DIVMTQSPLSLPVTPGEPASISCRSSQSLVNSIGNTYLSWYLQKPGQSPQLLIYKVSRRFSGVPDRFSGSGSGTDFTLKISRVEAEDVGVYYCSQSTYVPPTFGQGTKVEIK	1.3
MSB0010595 4K21 (4K21 hVH S56V-T62S hVL S27eY-N28I-H34S-N53R-H93Y) (antibody, V domains shown) VH: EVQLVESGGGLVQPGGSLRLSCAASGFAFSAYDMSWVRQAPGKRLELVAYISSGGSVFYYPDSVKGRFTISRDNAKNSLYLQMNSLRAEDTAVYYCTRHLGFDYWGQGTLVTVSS VL: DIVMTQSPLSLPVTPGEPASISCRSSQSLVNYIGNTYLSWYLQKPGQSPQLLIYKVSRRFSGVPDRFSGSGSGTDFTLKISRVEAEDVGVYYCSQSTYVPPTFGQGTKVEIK	0.8
anti-GM-CSF 4K21 hIgG1K antibody (MSB0010259), recombinant chimeric 4K21 (antibody, V domains shown, Murine variable domains fused to human constant IgG1 heavy chain and kappa light chain domains) VH: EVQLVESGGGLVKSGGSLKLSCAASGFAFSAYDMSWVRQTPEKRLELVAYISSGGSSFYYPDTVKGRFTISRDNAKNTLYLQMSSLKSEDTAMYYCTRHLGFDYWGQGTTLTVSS VL: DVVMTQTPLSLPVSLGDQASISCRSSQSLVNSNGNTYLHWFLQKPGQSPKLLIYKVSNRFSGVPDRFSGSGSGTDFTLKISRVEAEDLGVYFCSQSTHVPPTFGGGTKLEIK	0.2
MSB0010599 4K21 (4K21 hVH S55R-T62S hVL N28I-H34S-N53R-H93Y) (antibody, V domains shown, IgG) VH: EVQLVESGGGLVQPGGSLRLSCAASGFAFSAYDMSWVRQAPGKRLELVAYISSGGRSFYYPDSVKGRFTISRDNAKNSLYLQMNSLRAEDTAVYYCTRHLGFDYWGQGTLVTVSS VL: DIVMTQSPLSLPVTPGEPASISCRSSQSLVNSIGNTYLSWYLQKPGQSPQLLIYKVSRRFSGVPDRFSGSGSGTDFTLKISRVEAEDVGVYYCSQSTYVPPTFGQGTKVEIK	1.6
MSB0010602 4K21 (4K21 hVH S55K-T62S hVL S27eY-N28I-H34S-N53R-H93Y) (antibody, V domains shown, IgG) VH: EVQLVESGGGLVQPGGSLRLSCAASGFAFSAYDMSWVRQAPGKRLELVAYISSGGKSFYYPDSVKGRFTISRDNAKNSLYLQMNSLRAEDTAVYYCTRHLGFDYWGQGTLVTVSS VL: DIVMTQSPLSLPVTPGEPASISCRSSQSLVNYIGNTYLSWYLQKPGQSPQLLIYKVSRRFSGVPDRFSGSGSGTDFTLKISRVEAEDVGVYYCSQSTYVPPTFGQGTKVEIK	1.5
MSB0010603 4K21 (4K21 hVH S56V-T62S hVL N28I-H34S-N53R-H93Y) (antibody, V domains shown, IgG) VH: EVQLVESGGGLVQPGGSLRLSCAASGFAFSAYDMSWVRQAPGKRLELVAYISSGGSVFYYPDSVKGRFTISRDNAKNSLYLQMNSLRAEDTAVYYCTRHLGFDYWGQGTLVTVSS VL: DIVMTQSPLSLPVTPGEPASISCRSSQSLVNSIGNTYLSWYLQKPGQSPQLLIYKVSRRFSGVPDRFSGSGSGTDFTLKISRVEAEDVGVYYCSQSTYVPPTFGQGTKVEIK	0.8
